Experiment: In vitro plasma protein binding (ultrafiltration), rat
Type: in vitro ADME
Details: 100 and 1000 ng/mL
measurement_label: fraction unbound at 1 h
Answers are plain numbers.

Query: Read off the recorded fraction unbound at 1 h for CN(C)C(=O)c1cc2cnc(Nc3ccc(N4CCNCC4)cn3)nc2n1C1CCCC1
Reply: 0.2

----------
Test: Rat pharmacokinetic studies: plasma PK of ribociclib after single i.v. or oral dose
Type: in vivo
Conditions: female, rat f (4), po, 51.2 mg base/kg, read-out: t½ (converted)
measurement_label: half-life (h)
Answers are plain numbers, in h.

Query: Report half-life for CN(C)C(=O)c1cc2cnc(Nc3ccc(N4CCNCC4)cn3)nc2n1C1CCCC1
Reply: 2

----------
Test: Dog pharmacokinetic studies: plasma PK of ribociclib after single i.v. or oral dose
Type: in vivo
Details: male, iv, dog m (3), i.v., 0.2 mg base/kg, read-out: Vss
Procedure: ADME studies (including QWBA in pigmented and non‐pigmented rats) using radiolabeled ribociclib were conducted in rat and dog. Relevant institutional and national guides for the care and use of laboratory animals were followed. […]
measurement_label: Vd
Please append the unit to your numeric answer.

Query: Please indicate Vd recorded for CN(C)C(=O)c1cc2cnc(Nc3ccc(N4CCNCC4)cn3)nc2n1C1CCCC1
Reply: 27.9 L/kg

----------
Experiment: Dog pharmacokinetic studies: plasma PK of ribociclib after single i.v. or oral dose
Format: in vivo
Conditions: male, Beagle, 5 mg/kg, dog m (3), po, 5.0 mg base/kg
measurement_label: Tmax (h)
Numbers only, in h.

Query: Indicate the recorded Tmax value for this compound: CN(C)C(=O)c1cc2cnc(Nc3ccc(N4CCNCC4)cn3)nc2n1C1CCCC1
Reply: 1

----------
Assay: Dog pharmacokinetic studies: plasma PK of ribociclib after single i.v. or oral dose
Type: in vivo
Conditions: male, Beagle, 5 mg/kg, dog m (3), po, 5.0 mg base/kg, read-out: t½ (converted)
measurement_label: half-life (h)
Numbers only, in h.

Query: For the compound CN(C)C(=O)c1cc2cnc(Nc3ccc(N4CCNCC4)cn3)nc2n1C1CCCC1 , give its reported half-life.
Reply: 38.8

----------
Test: Rat milk excretion study
Format: in vivo
Conditions: female, milk (relative to plasma), lactating rats, read-out: milk exposure (AUCinf) relative to plasma exposure
measurement_label: Kp
Answers are plain numbers.

Query: Write down Kp measured for item CN(C)C(=O)c1cc2cnc(Nc3ccc(N4CCNCC4)cn3)nc2n1C1CCCC1 [ribociclib, Ribociclib]
Reply: 3.6

----------
Experiment: Rat pharmacokinetic studies: plasma PK of ribociclib after single i.v. or oral dose
Assay type: in vivo
Settings: female, rat f (3), po, 11.1 mg base/kg
measurement_label: Cmax (ng/mL)
Give bare numbers, in ng/mL.

Query: Please indicate Cmax recorded for CN(C)C(=O)c1cc2cnc(Nc3ccc(N4CCNCC4)cn3)nc2n1C1CCCC1
Reply: 59.1

----------
Assay: Rat pharmacokinetic studies: plasma PK of ribociclib after single i.v. or oral dose
Assay type: in vivo
Conditions: male, Hanover Wistar, rat m (3), po, 9.8 mg base/kg
Procedure: ADME studies (including QWBA in pigmented and non‐pigmented rats) using radiolabeled ribociclib were conducted in rat and dog. Relevant institutional and national guides for the care and use of laboratory animals were followed. […]
measurement_label: Tmax (h)
One number for each entry, in h.

Query: Give Tmax for the following molecule: CN(C)C(=O)c1cc2cnc(Nc3ccc(N4CCNCC4)cn3)nc2n1C1CCCC1
Reply: 4
